- Protocol Text: Ferret plasma PK, single dose
- Assay type: in vivo
- Assay Conditions: ferrets, 50 mg/kg PO, plasma
Experimental Readout: half-life (h)
Give your result in h as a bare value.

Please report the recorded half-life for O=c1ccn([C@@H]2O[C@](F)(CO)[C@@H](O)[C@H]2O)c(=O)[nH]1 .
4.3

----------
- Protocol Text: Guinea pig plasma PK, single dose
- Type: in vivo
- Assay Conditions: guinea pig; Guinea pigs, 50 mg/kg PO, plasma
Experimental Readout: Cmax

Please report the recorded Cmax for O=c1ccn([C@@H]2O[C@](F)(CO)[C@@H](O)[C@H]2O)c(=O)[nH]1 .
86.4 µM

----------
- Protocol Text: Guinea pig plasma PK, single dose
- Format: in vivo
- Assay Conditions: guinea pig; Guinea pigs, 5 mg/kg PO, plasma
Experimental Readout: AUC(0-inf) (µM·h)
Give your result in µM·h as a bare value.

Please report the recorded AUC(0-inf) for O=c1ccn([C@@H]2O[C@](F)(CO)[C@@H](O)[C@H]2O)c(=O)[nH]1 [EIDD-02749] .
92.9
